Entry source: the supplement of paper PMC11246515

# protocolDescription: total protein half-life in vivo (active degradation + dilution); higher = more stable protein
# measurementParameters: wild type E. coli NCM3722; growth: C-lim chemostat; doubling time 3 h
propertyMeasured: total protein half-life in vivo (h)
Give the number; h is assumed, so skip it.

Examples from the recorded data:
sequenceText	propertyMeasured	endpointUnit	number
MQTEHVILLNAQGVPTGTLEKYAAHTADTRLHLAFSSWLFNAKGQLLVTRRALSKKAWPGVWTNSVCGHPQLGESNEDAVIRRCRYELGVEITPPESIYPDFRYRATDPSGIVENEVCPVFAARTTSALQINDDEVMDYQWCDLADVLHGIDATPWAFSPWMVMQATNREARKRLSAFTQLK	total protein half-life in vivo	h	3.09
MKKLTVAALAVTTLLSGSAFAHEAGEFFMRAGSATVRPTEGAGGTLGSLGGFSVTNNTQLGLTFTYMATDNIGVELLAATPFRHKIGTRATGDIATVHHLPPTLMAQWYFGDASSKFRPYVGAGINYTTFFDNGFNDHGKEAGLSDLSLKDSWGAAGQVGVDYLINRDWLVNMSVWYMDIDTTANYKLGGAQQHDSVRLDPWVFMFSAGYRF [P0A915]	total protein half-life in vivo	h	3.53
MLELLFLLLPVAAAYGWYMGRRSAQQNKQDEANRLSRDYVAGVNFLLSNQQDKAVDLFLDMLKEDTGTVEAHLTLGNLFRSRGEVDRAIRIHQTLMESASLTYEQRLLAIQQLGRDYMAAGLYDRAEDMFNQLTDETDFRIGALQQLLQIYQATSEWQKAIDVAERLVKLGKDKQRVEIAHFYCELALQHMASDDLDRAMTLLKKGAAADKNSARVSIMMGRVFMAKGEYAKAVESLQRVISQDRELVSETLEMLQTCYQQLGKTAEWAEFLQRAVEENTGADAELMLADIIEARDGSEAAQVYITRQLQRHPTMRVFHKLMDYHLNEAEEGRAKESLMVLRDMVGEKVRSKPRYRCQKCGFTAYTLYWHCPSCRAWSTIKPIRGLDGL [P0AB58]	total protein half-life in vivo	h	3.1
MNFLAHLHLAHLAESSLSGNLLADFVRGNPEESFPPDVVAGIHMHRRIDVLTDNLPEVREAREWFRSETRRVAPITLDVMWDHFLSRHWSQLSPDFPLQEFVCYAREQVMTILPDSPPRFINLNNYLWSEQWLVRYRDMDFIQNVLNGMASRRPRLDALRDSWYDLDAHYDALETRFWQFYPRMMAQASRKAL	total protein half-life in vivo	h	2.18
MFQLSVQDIHPGEKAGDKEEAIRQVAAALVQAGNVAEGYVNGMLAREQQTSTFLGNGIAIPHGTTDTRDQVLKTGVQVFQFPEGVTWGDGQVAYVAIGIAASSDEHLGLLRQLTHVLSDDSVAEQLKSATTAEELRALLMGEKQSEQLKLDNEMLTLDIVASDLLTLQALNAARLKEAGAVDATFVTKAINEQPLNLGQGIWLSDSAEGNLRSAIAVSRAANAFDVDGETAAMLVSVAMNDDQPIAVLKRLADLLLDNKADRLLKADAATLLALLTSDDAPTDDVLSAEFVVRNEHGLHARPGTMLVNTIKQFNSDITVTNLDGTGKPANGRSLMKVVALGVKKGHRLRFTAQGADAEQALKAIGDAIAAGLGEGA	total protein half-life in vivo	h	2.96

Problem: Complete the entry with total protein half-life in vivo for MTPDELARLTGYSRQTINKWVRKEGWTTSPKPGVQGGKARLVHVNEQVREYIRNAERPEGQGEAPALSGDAPLEVLLVTLAKEMTPVEQKQFTSLLLREGIIGLLQRLGIRDSK [P0AD37]
Result: 1.89

Problem: Complete the entry with total protein half-life in vivo for `MNTPAQLSLPLYLPDDETFASFWPGDNSSLLAALQNVLRQEHSGYIYLWAREGAGRSHLLHAACAELSQRGDAVGYVPLDKRTWFVPEVLDGMEHLSLVCIDNIECIAGDELWEMAIFDLYNRILESGKTRLLITGDRPPRQLNLGLPDLASRLDWGQIYKLQPLSDEDKLQALQLRARLRGFELPEDVGRFLLKRLDREMRTLFMTLDQLDRASITAQRKLTIPFVKEILKL`
Result: 2.74

Problem: Complete the entry with total protein half-life in vivo for MWSEYSLEVVDAVARNGSFSAAAQELHRVPSAVSYTVRQLEEWLAVPLFERRHRDVELTAAGAWFLKEGRSVVKKMQITRQQCQQIANGWRGQLAIAVDNIVRPERTRQMIVDFYRHFDDVELLVFQEVFNGVWDALSDGRVELAIGATRAIPVGGRYAFRDMGMLSWSCVVASHHPLALMDGPFSDDTLRNWPSLVREDTSRTLPKRITWLLDNQKRVVVPDWESSATCISAGLCIGMVPTHFAKPWLNEGKWVALELENPFPDSACCLTWQQNDMSPALTWLLEYLGDSETLNKEWLREPEETPATGD [P0ACR2]
Result: 2.59

Problem: Complete the entry with total protein half-life in vivo for `MKIFLENLYHSDCYFLPIRDNQQVLVGVELITHFSSEDGTVRIPTSRVIAQLTEEQHWQLFSEQLELLKSCQHFFIQHKLFAWLNLTPQVATLLLERDNYAGELLKYPFIELLINENYPHLNEGKDNRGLLSLSQVYPLVLGNLGAGNSTMKAVFDGLFTRVMLDKSFIQQQITHRSFEPFIRAIQAQISPCCNCIIAGGIDTAEILAQITPFDFHALQGCLWPAVPINQITTLVQR`
Result: 2.99

Problem: Complete the entry with total protein half-life in vivo for `MRWLPFIAIFLYVYIEISIFIQVAHVLGVLLTLVLVIFTSVIGMSLVRNQGFKNFVLMQQKMAAGENPAAEMIKSVSLIIAGLLLLLPGFFTDFLGLLLLLPPVQKHLTVKLMPHLRFSRMPGGGFSAGTGGGNTFDGEYQRKDDERDRLDHKDDRQD`
Result: 2.47

Problem: Complete the entry with total protein half-life in vivo for `MSTFKPLKTLTSRRQVLKAGLAALTLSGMSQAIAKDELLKTSNGHSKPKAKKSGGKRVVVLDPGHGGIDTGAIGRNGSKEKHVVLAIAKNVRSILRNHGIDARLTRSGDTFIPLYDRVEIAHKHGADLFMSIHADGFTNPKAAGASVFALSNRGASSAMAKYLSERENRADEVAGKKATDKDHLLQQVLFDLVQTDTIKNSLTLGSHILKKIKPVHKLHSRNTEQAAFVVLKSPSVPSVLVETSFITNPEEERLLGTAAFRQKIATAIAEGVISYFHWFDNQKAHSKKR`
Result: 2.23

Problem: Complete the entry with total protein half-life in vivo for `MAKLTLQEQLLKAGLVTSKKAAKVERTAKKSRVQAREARAAVEENKKAQLERDKQLSEQQKQAALAKEYKAQVKQLIEMNRITIANGDIGFNFTDGNLIKKIFVDKLTQAQLINGRLAIARLLVDNNSEGEYAIIPASVADKIAQRDASSIVLHSALSAEEQDEDDPYADFKVPDDLMW`
Result: 2.24

###

# protocolDescription: total protein half-life in vivo (active degradation + dilution); higher = more stable protein
# measurementParameters: E. coli NCM3722 delta-hslV; growth: N-lim chemostat; doubling time 6 h
Entries annotated with measured total protein half-life in vivo
Give the number; h is assumed, so skip it.

Examples from the recorded data:
sequenceText	propertyMeasured	endpointUnit	number
MKVGFIGLGIMGKPMSKNLLKAGYSLVVADRNPEAIADVIAAGAETASTAKAIAEQCDVIITMLPNSPHVKEVALGENGIIEGAKPGTVLIDMSSIAPLASREISEALKAKGIDMLDAPVSGGEPKAIDGTLSVMVGGDKAIFDKYYDLMKAMAGSVVHTGEIGAGNVTKLANQVIVALNIAAMSEALTLATKAGVNPDLVYQAIRGGLAGSTVLDAKAPMVMDRNFKPGFRIDLHIKDLANALDTSHGVGAQLPLTAAVMEMMQALRADGLGTADHSALACYYEKLAKVEVTR [P0ABQ2]	total protein half-life in vivo	h	3.5
MTDNTYQPAKVWTWDKSAGGAFANINRPVSGPTHEKTLPVGKHPLQLYSLGTPNGQKVTIMLEELLALGVTGAEYDAWLIRIGDGDQFSSGFVEVNPNSKIPALRDHTHNPPIRVFESGSILLYLAEKFGYFLPQDLAKRTETMNWLFWLQGAAPFLGGGFGHFYHYAPVKIEYAINRFTMEAKRLLDVLDKQLAQHKFVAGDEYTIADMAIWPWFGNVVLGGVYDAAEFLDAGSYKHVQRWAKEVGERPAVKRGRIVNRTNGPLNEQLHERHDASDFETNTEDKRQG	total protein half-life in vivo	h	4.77
MIVAFCLYKYFPFGGLQRDFMRIASTVAARGHHVRVYTQSWEGDCPKAFELIQVPVKSHTNHGRNAEYYAWVQNHLKEHPADRVVGFNKMPGLDVYFAADVCYAEKVAQEKGFLYRLTSRYRHYAAFERATFEQGKSTKLMMLTDKQIADFQKHYQTEPERFQILPPGIYPDRKYSEQIPNSREIYRQKNGIKEQQNLLLQVGSDFGRKGVDRSIEALASLPESLRHNTLLFVVGQDKPRKFEALAEKLGVRSNVHFFSGRNDVSELMAAADLLLHPAYQEAAGIVLLEAITAGLPVLTTAVCGYAHYIADANCGTVIAEPFSQEQLNEVLRKALTQSPLRMAWAENARHYADTQDLYSLPEKAADIITGGLDG	total protein half-life in vivo	h	6.71

Problem: Complete the entry with total protein half-life in vivo for MGFLSGKRILVTGVASKLSIAYGIAQAMHREGAELAFTYQNDKLKGRVEEFAAQLGSDIVLQCDVAEDASIDTMFAELGKVWPKFDGFVHSIGFAPGDQLDGDYVNAVTREGFKIAHDISSYSFVAMAKACRSMLNPGSALLTLSYLGAERAIPNYNVMGLAKASLEANVRYMANAMGPEGVRVNAISAGPIRTLAASGIKDFRKMLAHCEAVTPIRRTVTIEDVGNSAAFLCSDLSAGISGEVVHVDGGFSIAAMNELELK [P0AEK4]
Result: 5.3

Problem: Complete the entry with total protein half-life in vivo for `MKALSPIAVLISALLLQGCVAAAVVGTAAVGTKAATDPRSVGTQVDDGTLEVRVNSALSKDEQIKKEARINVTAYQGKVLLVGQSPNAELSARAKQIAMGVDGANEVYNEIRQGQPIGLGEASNDTWITTKVRSQLLTSDLVKSSNVKVTTENGEVFLMGLVTEREAKAAADIASRVSGVKRVTTAFTFIK`
Result: 6.43

Problem: Complete the entry with total protein half-life in vivo for MTQPMPGKPAEDAENELDIRGLFRTLWAGKLWIIGMGLAFALIALAYTFFARQEWSSTAITDRPTVNMLGGYYSQQQFLRNLDVRSNMASADQPSVMDEAYKEFVMQLASWDTRREFWLQTDYYKQRMVGNSKADAALLDEMINNIQFIPGDFTRAVNDSVKLIAETAPDANNLLRQYVAFASQRAASHLNDELKGAWAARTIQMKAQVKRQEEVAKAIYDRRMNSIEQALKIAEQHNISRSATDVPAEELPDSEMFLLGRPMLQARLENLQAVGPAFDLDYDQNRAMLNTLNVGPTLDPRFQTYRYLRTPEEPVKRDSPRRAFLMIMWGIVGGLIGAGVALTRRCSK [P0AG00]
Result: 6.71

Problem: Complete the entry with total protein half-life in vivo for `MRVLGIETSCDETGIAIYDDEKGLLANQLYSQVKLHADYGGVVPELASRDHVRKTVPLIQAALKESGLTAKDIDAVAYTAGPGLVGALLVGATVGRSLAFAWDVPAIPVHHMEGHLLAPMLEDNPPEFPFVALLVSGGHTQLISVTGIGQYELLGESIDDAAGEAFDKTAKLLGLDYPGGPLLSKMAAQGTAGRFVFPRPMTDRPGLDFSFSGLKTFAANTIRDNGTDDQTRADIARAFEDAVVDTLMIKCKRALDQTGFKRLVMAGGVSANRTLRAKLAEMMKKRRGEVFYARPEFCTDNGAMIAYAGMVRFKAGATADLGVSVRPRWPLAELPAA`
Result: 3.73

Problem: Complete the entry with total protein half-life in vivo for `MKYQLTALEARVIGCLLEKQVTTPEQYPLSVNGVVTACNQKTNREPVMNLSESEVQEQLDNLVKRHYLRTVSGFGNRVTKYEQRFCNSEFGDLKLSAAEVALITTLLLRGAQTPGELRSRAARMYEFSDMAEVESTLEQLANREDGPFVVRLAREPGKRENRYMHLFSGEVEDQPAVTDMSNAVDGDLQARVEALEIEVAELKQRLDSLLAHLGD`
Result: 6.03

Problem: Complete the entry with total protein half-life in vivo for MVKLAFPRELRLLTPSQFTFVFQQPQRAGTPQITILGRLNSLGHPRIGLTVAKKNVRRAHERNRIKRLTRESFRLRQHELPAMDFVVVAKKGVADLDNRALSEALEKLWRRHCRLARGS [P0A7Y8]
Result: 4.21

Problem: Complete the entry with total protein half-life in vivo for `MQCALYDAGRCRSCQWIMQPIPEQLSAKTADLKNLLADFPVEEWCAPVSGPEQGFRNKAKMVVSGSVEKPLLGMLHRDGTPEDLCDCPLYPASFAPVFAALKPFIARAGLTPYNVARKRGELKYILLTESQSDGGMMLRFVLRSDTKLAQLRKALPWLHEQLPQLKVITVNIQPVHMAIMEGETEIYLTEQQALAERFNDVPLWIRPQSFFQTNPAVASQLYATARDWVRQLPVKHMWDLFCGVGGFGLHCATPDMQLTGIEIASEAIACAKQSAAELGLTRLQFQALDSTQFATAQGDVPELVLVNPPRRGIGKPLCDYLSTMAPRFIIYSSCNAQTMAKDIRELPGFRIERVQLFDMFPHTAHYEVLTLLVKQ`
Result: 4.89
